Test system: mouse TTR gene
test.summary: In vivo editing in mouse liver, sgRNA targeting TTR (G282 or G502), % indel by NGS
Set-up: species or system CD-1 female mice
experimental.parameters: LNP i.v. 0.3 mg/kg, guide G282, Experiments 101-103
observable: Editing Mean % Indel

{"compound": "CCCCCCCCCCOC(=O)CCCCCCCC(=O)OCC(COC(=O)CCC(OCCCCCCCC)OCCCCCCCC)COC(=O)OCCCN(CC)CC (stereo not drawn)", "result": "63.9%"}
{"compound": "CCCCC/C=C\\C/C=C\\CCCCCCCC(=O)OCC(COC(=O)CCCN(CC)CC)COC(=O)CCC(OCCCCCCCC)OCCCCCCCC (stereo not drawn)", "result": "54.8%"}
{"compound": "CCCCC/C=C\\C/C=C\\CCCCCCCC(=O)OCC(COC(=O)CCC(OCCCCCCCC)OCCCCCCCC)COC(=O)C1CCN(C)CC1 (stereo not drawn)", "result": "50.7%"}
{"compound": "CCCCC/C=C\\C/C=C\\CCCCCCCC(=O)OCC(COC(=O)CCC(OCCCCCCCC)OCCCCCCCC)COC(=O)NCC1CCCN1CC (stereo not drawn)", "result": "68.0%"}
{"compound": "CCCCCC/C=C\\COC(=O)CCCCCCCC(=O)OCC(COC(=O)CCC(OCCCCCCCC)OCCCCCCCC)COC(=O)OCCCN(CC)CC (stereo not drawn)", "result": "64.8%"}
{"compound": "CCCCC/C=C\\C/C=C\\CCCCCCCC(=O)OCC(COC(=O)CCC(OCCCCCCCC)OCCCCCCCC)COC(=O)OCC1CCCN(C)C1 (stereo not drawn)", "result": "48.2%"}

###

test.summary: Dynamic light scattering of LNPs: Z-average diameter, number average diameter, PDI
Type: physicochemical
experimental.parameters: LNP, sg:mRNA 1:1, N/P about 6, 50/9/38/3; Table 2, Experiments 2-20
In this section, each of the compounds is paired with its reported Number mean (nm).
observable: Number mean (nm)

{"compound": "CCCCCCCCCCOC(=O)CCCCCCCC(=O)OCC(COC(=O)CCC(OCCCCCCCCC)OCCCCCCCCC)COC(=O)OCCCN(CC)CC (stereo not shown) [Compound 79]", "quantitative.readout": 83.64}
{"compound": "CCCCC/C=C\\C/C=C\\CCCCCCCC(=O)OCC(COC(=O)CCC(OCCCCCCCC)OCCCCCCCC)COC(=O)OCCCN(C)CC (stereo not shown) [Compound 20]", "quantitative.readout": 64.34}
{"compound": "CCCCC/C=C\\C/C=C\\CCCCCCCC(=O)OCC(COC(=O)CCC(OCCCCCCCC)OCCCCCCCC)COC(=O)OCCCCN1CCCC1 (stereo not shown) [Compound 13]", "quantitative.readout": 74.6}
{"compound": "CCCCC/C=C\\C/C=C\\CCCCCCCC(=O)OCC(COC(=O)CCC(OCCCCCCCC)OCCCCCCCC)COC(=O)OCCC(C)N(C)C (stereo not shown) [Compound 22]", "quantitative.readout": 73.96}
{"compound": "CCCCCC/C=C\\COC(=O)CCCCCCCC(=O)OCC(COC(=O)CCCCCC(=O)OC(CCCCCCCC)CCCCCCCC)COC(=O)OCCCN(CC)CC (stereo not shown) [Compound 85]", "quantitative.readout": 81.21}
{"compound": "CCCCC/C=C\\C/C=C\\CCCCCCCC(=O)OCC(COC(=O)CCC(OCCCCCCCC)OCCCCCCCC)COC(=O)NCC1CCCCN1CC (stereo not shown) [Compound 38]", "quantitative.readout": 74.58}
{"compound": "CCCCC/C=C\\C/C=C\\CCCCCCCC(=O)OCC(COC(=O)CCCC(=O)OC(CCCCCCCC)CCCCCCCC)COC(=O)OCCCN(CC)CC (stereo not shown) [Compound 63]", "quantitative.readout": 64.05}
{"compound": "CCCCC/C=C\\C/C=C\\CCCCCCCC(=O)OCC(COC(=O)CCC(OCCCCCCCC)OCCCCCCCC)COC(=O)NC1CCCN(CC)C1 (stereo not shown) [Compound 36]", "quantitative.readout": 59.48}
{"compound": "CCCCC/C=C\\C/C=C\\CCCCCCCC(=O)OCC(COC(=O)CCC(OCCCCCCCC)OCCCCCCCC)COC(=O)OCCN(C)C (stereo not shown) [Compound 18]", "quantitative.readout": 48.22}
{"compound": "CCCCC/C=C\\C/C=C\\CCCCCCCC(=O)OCC(COC(=O)CCCCCC(CCCCCC)CCCCCC)COC(=O)OCCCN(CC)CC (stereo not shown) [Compound 68]", "quantitative.readout": 60.04}
{"compound": "CCCCCCCCCCOC(=O)CCCCCCCC(=O)OCC(COC(=O)CCCN(CC)CC)COC(=O)CCC(OCCCCCCCC)OCCCCCCCC (stereo not shown) [Compound 75]", "quantitative.readout": 92.74}
{"compound": "CCCCC/C=C\\C/C=C\\CCCCCCCC(=O)OCC(COCCCN(CC)CC)COC(=O)CCC(OCCCCCCCC)OCCCCCCCC (stereo not shown) [Compound 99]", "quantitative.readout": 74}
{"compound": "CCCCC/C=C\\C/C=C\\CCCCCCCC(=O)OCC(COC(=O)CC(CCCCCCCC)CCCCCCCC)COC(=O)OCCCN(CC)CC (stereo not shown) [Compound 66]", "quantitative.readout": 44.03}
{"compound": "CCCCCCCCCCOC(=O)CCCCCCCC(=O)OCC(COC(=O)CCC(OCCCCCCCC)OCCCCCCCC)COC(=O)NCCN(CC)CC (stereo not shown) [Compound 73]", "quantitative.readout": 94.5}
{"compound": "CCCCCCCCOC(=O)CCCCCCCC(=O)OCC(COC(=O)CCC(OCCCCCCCC)OCCCCCCCC)COC(=O)OCCCN(CC)CC (stereo not shown) [Compound 58]", "quantitative.readout": 72.42}
{"compound": "CCCCC/C=C\\C/C=C\\CCCCCCCC(=O)OCC(COC(=O)CCCCC(OCCCCCCCC)OCCCCCCCC)COC(=O)OCCCN(CC)CC (stereo not shown) [Compound 62]", "quantitative.readout": 59.35}
{"compound": "CCCCCCCCCCOC(=O)CCCCCCCC(=O)OCC(COC(=O)CCC(OCCCCCCCC)OCCCCCCCC)COC(=O)OCCC1CCCN1C (stereo not shown) [Compound 74]", "quantitative.readout": 87.14}
{"compound": "CCCCCCCCOC(CCC(=O)OCC(COC(=O)CCCCCCCCCCC(=O)OCCCCC)COC(=O)OCCCN(CC)CC)OCCCCCCCC (stereo not shown) [Compound 60]", "quantitative.readout": 84.46}
{"compound": "CCCCC/C=C\\C/C=C\\CCCCCCCC(=O)OCC(COC(=O)CCC(OCCCCCCCC)OCCCCCCCC)COC(=O)OCC1CCN(CC)C1 (stereo not shown) [Compound 51]", "quantitative.readout": 72.23}
{"compound": "CCCCC/C=C\\C/C=C\\CCCCCCCC(=O)OCC(COC(=O)CCC(OCCCCCCCC)OCCCCCCCC)COC(=O)NCC1CCCN1CC (stereo not shown) [Compound 40]", "quantitative.readout": 56.73}
{"compound": "CCCCCC/C=C\\COC(=O)CCCCCCCC(=O)OCC(COC(=O)CCC(OCCCCCCC)OCCCCCCC)COC(=O)OCCCN(CC)CC (stereo not shown) [Compound 84]", "quantitative.readout": 86.08}
{"compound": "CCCCC/C=C\\C/C=C\\CCCCCCCC(=O)OCC(COC(=O)CCC(OCCCCCCCC)OCCCCCCCC)COC(=O)NC1CCN(CC)CC1 (stereo not shown) [Compound 37]", "quantitative.readout": 44.73}
{"compound": "CCCCCCCCCCOC(=O)CCCCCCCCCC(=O)OCC(COC(=O)CCC(OCCCCCCCC)OCCCCCCCC)COC(=O)OCCCN(CC)CC (stereo not shown) [Compound 90]", "quantitative.readout": 81.15}
{"compound": "CCCCCCCCCCOC(=O)CCCCCCCC(=O)OCC(COC(=O)CCCC(=O)OC(CCCCCCCC)CCCCCCCC)COC(=O)OCCCN(CC)CC (stereo not shown) [Compound 77]", "quantitative.readout": 85.4}
{"compound": "CCCCC/C=C\\C/C=C\\CCCCCCCC(=O)OCC(COC(=O)CCC(OCCCCCCCC)OCCCCCCCC)COC(=O)NCCCN(CC)CC (stereo not shown) [Compound 7]", "quantitative.readout": 43.91}
